Listing of recorded normalized growth by entry.
assay: chemical genetic growth profiling, strain panel (AID 1159580);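 note: tested at 20 µM; growth read once vehicle control cultures reached saturation at 30 °C; 1 = growth at the plate median or of vehicle wells; lower values mean less growth of the strain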; conditions: S. cerevisiae deletion strains, growth OD, locus YNL207W, strain RIO2, active compounds read low
Hit rate of the full screen: of about 5,500 compounds, about 2,000 (36%) were called active. Not shown: some 18% with an inconclusive outcome. This is one part of the list.
measured-property: normalized growth

- CC(=O)Nc1ccc(S(=O)(=O)Nc2ccccc2Oc2ccc(Cl)cc2Cl)cc1: 0.995
- O=C(NNc1ccc(I)cc1)c1cc(Cl)cc(Cl)c1: 0.963
- FC(F)(F)c1ccnc(N2CCCN(C(=S)Nc3ccc(Cl)cc3Cl)CC2)n1: 0.964
- OC(CN1CCN(c2nc3ccc(Cl)cc3s2)CC1)Cn1ccc2ccccc21 (stereo not given): 1
- Cc1c(-c2ccnn2C(=O)c2ccco2)cnn1-c1ccccc1: 0.958
